Target: HCV NS3/4A protease complex (UniProt P27958, C1454S/C1711G, species not given)
Construct: fused on or other part: Three-lysine solubilising tail at the C-terminus of NS4A
Assay: Recombinant HCV NS3/4A protease complex FRET peptide assay (strain not stated)
Type: biochemical
Details: HCV NS3/4A protease enzyme assay, read-out: IC50 range
observable: IC50

>>> assay_result("C=CC1C[C@]1(NC(=O)[C@@H]1C[C@@H](OC(=O)Nc2cc(C(F)(F)F)ccc2-n2cccc2)CN1C(=O)[C@@H](NC(=O)OC(C)(C)C)C(C)(C)C)C(=O)NS(=O)(=O)C1CC1 (some centres unmarked) [Compound 85]")
"< 100 nM"
>>> assay_result("C=CC1C[C@]1(NC(=O)[C@@H]1C[C@@H](OC(=O)Nc2ccccc2I)CN1C(=O)[C@@H](NC(=O)OC(C)(C)C)C(C)(C)C)C(=O)NS(=O)(=O)C1CC1 (some centres unmarked) [Compound 65]")
"< 100 nM"
>>> assay_result("C=CC1C[C@]1(NC(=O)[C@@H]1C[C@@H](OC(=O)Nc2cc(C)ccc2-n2cccn2)CN1C(=O)[C@@H](NC(=O)OC(C)(C)C)C(C)(C)C)C(=O)NS(=O)(=O)C1CC1 (some centres unmarked) [Compound 96]")
"< 100 nM"
>>> assay_result("C=CC1C[C@]1(NC(=O)[C@@H]1C[C@@H](OC(=O)Nc2ccccc2Cl)CN1C(=O)[C@@H](NC(=O)OC(C)(C)C)C(C)(C)C)C(=O)NS(=O)(=O)C1CC1 (some centres unmarked) [Compound 53]")
"< 100 nM"
>>> assay_result("C=CC1C[C@]1(NC(=O)[C@@H]1C[C@@H](OC(=O)Nc2cc(C(F)(F)F)ccc2N2CCCC2)CN1C(=O)[C@@H](NC(=O)OC(C)(C)C)C(C)(C)C)C(=O)NS(=O)(=O)C1CC1 (some centres unmarked) [Compound 84]")
"< 100 nM"
>>> assay_result("C=CC1C[C@]1(NC(=O)[C@@H]1C[C@@H](OC(=O)N2CCOCC2)CN1C(=O)[C@@H](NC(=O)OC(C)(C)C)C(C)(C)C)C(=O)NS(=O)(=O)C1CC1 (some centres unmarked) [Compound 4]")
"100 to 1000 nM"
>>> assay_result("C=CC1C[C@]1(NC(=O)[C@@H]1C[C@@H](OC(=O)Nc2ccccc2SC)CN1C(=O)[C@@H](NC(=O)OC(C)(C)C)C(C)(C)C)C(=O)NS(=O)(=O)C1CC1 (some centres unmarked) [Compound 29]")
"< 100 nM"
>>> assay_result("C=CC1C[C@]1(NC(=O)[C@@H]1C[C@@H](OC(=O)Nc2ccccn2)CN1C(=O)[C@@H](NC(=O)OC(C)(C)C)C(C)(C)C)C(=O)NS(=O)(=O)C1CC1 (some centres unmarked) [Compound 75]")
"100 to 1000 nM"
>>> assay_result("C=CC1C[C@]1(NC(=O)[C@@H]1C[C@@H](OC(=O)Nc2cc(C#N)ccc2-n2cccn2)CN1C(=O)[C@@H](NC(=O)OC(C)(C)C)C(C)(C)C)C(=O)NS(=O)(=O)C1CC1 (some centres unmarked) [Compound 98]")
"< 100 nM"
>>> assay_result("C=CC1C[C@]1(NC(=O)[C@@H]1C[C@@H](OC(=O)N[C@H](C(=O)OC)[C@@H](C)CC)CN1C(=O)[C@@H](NC(=O)OC(C)(C)C)C(C)(C)C)C(=O)NS(=O)(=O)C1CC1 (some centres unmarked) [Compound 12]")
"1000 to 10000 nM"
>>> assay_result("C=CC1C[C@]1(NC(=O)[C@@H]1C[C@@H](OC(=O)Nc2cc(Cl)nc(Cl)c2)CN1C(=O)[C@@H](NC(=O)OC(C)(C)C)C(C)(C)C)C(=O)NS(=O)(=O)C1CC1 (some centres unmarked) [Compound 18]")
"100 to 1000 nM"
>>> assay_result("C=CC1C[C@]1(NC(=O)[C@@H]1C[C@@H](OC(=O)Nc2cccc(OC)c2)CN1C(=O)[C@@H](NC(=O)OC(C)(C)C)C(C)(C)C)C(=O)NS(=O)(=O)C1CC1 (some centres unmarked) [Compound 27]")
"< 100 nM"
>>> assay_result("C=CC1C[C@]1(NC(=O)[C@@H]1C[C@@H](OC(=O)N2CCc3ccccc32)CN1C(=O)[C@@H](NC(=O)OC(C)(C)C)C(C)(C)C)C(=O)NS(=O)(=O)C1CC1 (some centres unmarked) [Compound 36]")
"< 100 nM"
>>> assay_result("C=CC1C[C@]1(NC(=O)[C@@H]1C[C@@H](OC(=O)Nc2cc(Cl)ccc2C)CN1C(=O)[C@@H](NC(=O)OC(C)(C)C)C(C)(C)C)C(=O)NS(=O)(=O)C1CC1 (some centres unmarked) [Compound 20]")
"< 100 nM"
>>> assay_result("C=CC1C[C@]1(NC(=O)[C@@H]1C[C@@H](OC(=O)Nc2c(Cl)cccc2Cl)CN1C(=O)[C@@H](NC(=O)OC(C)(C)C)C(C)(C)C)C(=O)NS(=O)(=O)C1CC1 (some centres unmarked) [Compound 54]")
"100 to 1000 nM"
>>> assay_result("C=CC1C[C@]1(NC(=O)[C@@H]1C[C@@H](OC(=O)Nc2ccccc2C(C)=O)CN1C(=O)[C@@H](NC(=O)OC(C)(C)C)C(C)(C)C)C(=O)NS(=O)(=O)C1CC1 (some centres unmarked) [Compound 79]")
"< 100 nM"
>>> assay_result("C=CC1CC1(NC(=O)[C@@H]1C[C@@H](OC(=O)NC(C)c2cccc3ccccc23)CN1C(=O)[C@@H](NC(=O)OC(C)(C)C)C(C)(C)C)C(=O)O (some centres unmarked) [Compound 105]")
"> 10000 nM"
>>> assay_result("C=CC1C[C@]1(NC(=O)[C@@H]1C[C@@H](OC(=O)Nc2ccccc2/C(=N/O)c2ccccc2)CN1C(=O)[C@@H](NC(=O)OC(C)(C)C)C(C)(C)C)C(=O)NS(=O)(=O)C1CC1 (single isomer, unassigned) [Compound 77b]")
"100 to 1000 nM"
>>> assay_result("C=CC1C[C@]1(NC(=O)[C@@H]1C[C@@H](OC(=O)Nc2c(C)nn(C)c2C)CN1C(=O)[C@@H](NC(=O)OC(C)(C)C)C(C)(C)C)C(=O)NS(=O)(=O)C1CC1 (some centres unmarked) [Compound 68]")
"1000 to 10000 nM"
>>> assay_result("C=CC1CC1(NC(=O)[C@@H]1C[C@@H](OC(=O)N[C@H](C(=O)OC)[C@@H](C)CC)CN1C(=O)[C@@H](NC(=O)OC(C)(C)C)C(C)(C)C)C(=O)O (some centres unmarked) [Compound 104]")
"1000 to 10000 nM"

----------
pIC50 values, listed per item
Target: HCV NS3/4A protease complex (UniProt P27958, C1454S/C1711G, species not given)
Construct: fused on or other part: Three-lysine solubilising tail at the C-terminus of NS4A
Assay: Recombinant HCV NS3/4A protease complex FRET peptide assay (strain not stated)
Type: biochemical
Conditions: HCV NS3/4A protease enzyme assay, read-out: IC50 range
pIC50: −log10 of the molar value.
observable: pIC50

>>> assay_result("C=C[C@@H]1C[C@]1(NC(=O)[C@@H]1C[C@@H](OC(=O)Nc2ccccc2C(=O)OCC)CN1C(=O)[C@@H](NC(=O)OCC)C(C)(C)C)C(=O)NS(=O)(=O)C1CC1")
"> 7.00"
>>> assay_result("C=CC1C[C@]1(NC(=O)[C@@H]1C[C@@H](OC(=O)Nc2ccccc2C)CN1C(=O)[C@@H](NC(=O)OC(C)(C)C)C(C)(C)C)C(=O)NS(=O)(=O)C1CC1 (stereo partly drawn)")
"6.00 to 7.00"
>>> assay_result("C=CC1C[C@]1(NC(=O)[C@@H]1C[C@@H](OC(=O)Nc2cc(C(F)(F)F)ccc2N2CCC(C(F)(F)F)CC2)CN1C(=O)[C@@H](NC(=O)OC(C)(C)C)C(C)(C)C)C(=O)NS(=O)(=O)C1CC1 (stereo partly drawn)")
"> 7.00"

----------
Biological target: HCV NS3/4A protease complex (UniProt P27958, C1454S/C1711G, species not given)
Construct: fused on or other part: Three-lysine solubilising tail at the C-terminus of NS4A
Experiment: Recombinant HCV NS3/4A protease complex FRET peptide assay (strain not stated)
Type: biochemical
Conditions: HCV NS3/4A protease enzyme assay, read-out: IC50 range
pIC50: −log10 of the molar value.
observable: pIC50

>>> assay_result("C=CC1CC1(NC(=O)[C@@H]1C[C@@H](OC(=O)NCCc2cccs2)CN1C(=O)[C@@H](NC(=O)OC(C)(C)C)C(C)(C)C)C(=O)O (some centres unmarked) [Compound 108]")
"< 5.00"
>>> assay_result("C=CC1C[C@]1(NC(=O)[C@@H]1C[C@@H](OC(=O)Nc2ccccc2-n2nccn2)CN1C(=O)[C@@H](NC(=O)OC(C)(C)C)C(C)(C)C)C(=O)NS(=O)(=O)C1CC1 (some centres unmarked) [Compound 93]")
"> 7.00"
>>> assay_result("C=CC1C[C@]1(NC(=O)[C@@H]1C[C@@H](OC(=O)Nc2c(CC)cccc2C(C)C)CN1C(=O)[C@@H](NC(=O)OC(C)(C)C)C(C)(C)C)C(=O)NS(=O)(=O)C1CC1 (some centres unmarked) [Compound 22]")
"5.00 to 6.00"
>>> assay_result("C=CC1C[C@]1(NC(=O)[C@@H]1C[C@@H](OC(=O)Nc2cc(Cl)ccc2OC)CN1C(=O)[C@@H](NC(=O)OC(C)(C)C)C(C)(C)C)C(=O)NS(=O)(=O)C1CC1 (some centres unmarked) [Compound 9]")
"> 7.00"
>>> assay_result("C=CCN(CC=C)C(=O)O[C@@H]1C[C@@H](C(=O)N[C@]2(C(=O)NS(=O)(=O)C3CC3)CC2C=C)N(C(=O)[C@@H](NC(=O)OC(C)(C)C)C(C)(C)C)C1 (some centres unmarked) [Compound 5]")
"6.00 to 7.00"
